# Assay name: Acute toxicity on mice with peroral treatment
# Type: in vivo
# Condition context: mouse, in vivo, po, Table 1, read-out: LD50 p.o. (Table 1)
Metric: LD50 (mg/kg)
// note: answer is a bare numeric in mg/kg

Query: LD50; subject: CC(CN(C)C)CN1c2ccccc2OCOc2ccc(Cl)cc21 (racemic) [racemic, reference compound]
270
